The molecules listed here are annotated with their IC50.
molecular target: recombinant human DAO (diamine oxidase) (Homo sapiens); construct: purchased R&D systems; assay: Activity on recombinant human DAO, Amplex Red method, 1 mM putrescine substrate; assay type: biochemical; settings: recombinant human DAO, 1 mM putrescine; * = between 10 and 100 nM, ** = between 300 and 1000 nM; read-out: Inhibitory Activity (IC50, nM) DAO
Sequence (P19801 20-751): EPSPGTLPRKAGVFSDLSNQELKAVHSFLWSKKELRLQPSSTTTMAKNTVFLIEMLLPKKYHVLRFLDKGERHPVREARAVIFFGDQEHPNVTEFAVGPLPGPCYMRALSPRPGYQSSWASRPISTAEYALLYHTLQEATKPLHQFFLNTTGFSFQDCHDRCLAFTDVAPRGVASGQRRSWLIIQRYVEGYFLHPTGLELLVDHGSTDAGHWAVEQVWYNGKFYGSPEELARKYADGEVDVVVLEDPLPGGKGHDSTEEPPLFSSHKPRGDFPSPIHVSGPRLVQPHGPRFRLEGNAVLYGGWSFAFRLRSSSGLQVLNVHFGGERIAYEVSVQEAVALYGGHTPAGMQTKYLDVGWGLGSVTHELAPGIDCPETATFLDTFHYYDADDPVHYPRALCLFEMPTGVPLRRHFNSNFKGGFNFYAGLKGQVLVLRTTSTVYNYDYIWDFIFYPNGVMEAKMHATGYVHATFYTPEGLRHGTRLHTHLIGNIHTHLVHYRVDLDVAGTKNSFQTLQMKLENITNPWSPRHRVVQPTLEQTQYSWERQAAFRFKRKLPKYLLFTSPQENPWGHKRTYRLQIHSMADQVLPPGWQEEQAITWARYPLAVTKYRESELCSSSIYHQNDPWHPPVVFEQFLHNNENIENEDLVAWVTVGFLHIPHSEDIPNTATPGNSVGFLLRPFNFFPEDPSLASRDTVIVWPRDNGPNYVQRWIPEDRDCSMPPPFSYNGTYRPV
Where a name gives a salt, the structure may show the parent alone.
REPORTED_ENDPOINT: IC50

MOLECULE: COc1ncc(-c2cccc(-n3cnn(C/C(=C/F)CN)c3=O)c2)cc1C(F)(F)F [Example 87, hydrochloride]
TEST_TARGET: recombinant human DAO (diamine oxidase) (Homo sapiens)
ENDPOINT_RESULT: < 100 nM
//
MOLECULE: Cc1c(-c2ccc3nonc3c2)cccc1-n1cnn(C/C(=C/F)CN)c1=O
TEST_TARGET: recombinant human DAO (diamine oxidase) (Homo sapiens)
ENDPOINT_RESULT: < 1000 nM
//
MOLECULE: Cc1cc(-c2ccc3nonc3c2)ncc1-n1cnn(C/C(=C/F)CN)c1=O
TEST_TARGET: recombinant human DAO (diamine oxidase) (Homo sapiens)
ENDPOINT_RESULT: < 100 nM
//
MOLECULE: NC/C(=C\F)Cn1ncn(-c2cccc(-c3ccc(OC(F)(F)F)cc3)c2)c1=O [Example 50, hydrochloride]
TEST_TARGET: recombinant human DAO (diamine oxidase) (Homo sapiens)
ENDPOINT_RESULT: < 100 nM
//
MOLECULE: Cc1cc(-c2cccc(-c3nc[nH]n3)c2)ncc1-n1cnn(C/C(=C/F)CN)c1=O
TEST_TARGET: recombinant human DAO (diamine oxidase) (Homo sapiens)
ENDPOINT_RESULT: < 100 nM
//
MOLECULE: NC/C(=C\F)Cn1ncn(-c2cccc(-c3ccc(-c4noc(C5CC5)n4)cc3)c2)c1=O [Example 63, hydrochloride]
TEST_TARGET: recombinant human DAO (diamine oxidase) (Homo sapiens)
ENDPOINT_RESULT: < 30 nM
